test system: CCRIS mutagenicity, Ames/micronucleus/aberration tests; assay: CCRIS mutagenicity studies; settings: Test System: AMES SALMONELLA TYPHIMURIUM; Strain/Indicator: TA98; Metabolic Activation: NONE; Method: PREINCUBATION
The source made the active and inactive calls. No rule for the calls is given here.
# valid calls are 1 (yes) for active, 0 (no) for inactive; nothing else

Write down the call the test reported for this compound. Item: c1cc2cnncc2cn1
0 (no)

What outcome does the record of this test show for O=c1[nH]c(=O)n([C@H]2C[C@H](O)[C@@H](CO)O2)cc1I ?
0 (no)

What is the recorded call for this compound in the test? CCOCCO
0 (no)

Look up the recorded call for CN(c1nccc(=O)[nH]1)C1CCN(c2nc3ccccc3n2Cc2ccc(F)cc2)CC1 in this test.
0 (no)

Kindly provide the recorded test outcome for the following compound: c1ccc2c(c1)Nc1ccccc1S2
0 (no)

Kindly provide the recorded test outcome for the following compound: O=C(O)C=C(C(Cl)Cl)C(Cl)Cl
0 (no)

What did the test return for Cc1ccccc1C=O ?
0 (no)

What is the recorded call for this compound in the test? O=Cc1ccc(Cl)c(Cl)c1
0 (no)

# outcome recorded in this test, key = Brc1ccc(-c2ccccc2)cc1
0 (no)

Called result for Cc1ccccc1C(=O)Cl
0 (no)

Recorded test call requested for COc1cc(-c2ccc(N/N=C3\C=C(S(=O)(=O)O)c4ccccc4C3=O)c(OC)c2)ccc1N/N=C1/C=C(S(=O)(=O)O)c2ccccc2C1=O
0 (no)

What was the test verdict on Clc1cc(Cl)c(Cl)c(Cl)c1Cl ?
0 (no)

Outcome logged for CC(=O)Nc1ccc(Oc2ccc(NO)cc2)cc1 in this assay:
1 (yes)

Entry NNc1ccccc1 : call = ?
1 (yes)

Please state the recorded outcome for this compound: O=C1c2ccccc2C(=O)c2cc(CO)ccc21
0 (no)

Just curious, what result did COc1cc2c(c3oc(=O)c4c(c13)CCC4=O)[C@H]1[C@@H](O2)O[C@@H]2O[C@@H]21 get here?
1 (yes)

What classification did O=C1C(c2[nH]c3ccc(S(=O)(=O)O)cc3c2O)=Nc2ccc(S(=O)(=O)O)cc21 end up with in this test?
0 (no)

Assay result, entry Nc1cc([N+](=O)[O-])cc([N+](=O)[O-])c1 — outcome?
1 (yes)

Record request — test call for CCCCOCCO
0 (no)

Recorded test outcome, item CC(C)CC(C)Nc1ccc(Nc2ccccc2)cc1 (stereo unspecified)
0 (no)

# fetch the recorded call for CCC(C)C(C)CO (stereo unspecified) here
0 (no)

Look up the recorded call for COC1=CC=CC=CC1 in this test.
0 (no)

Check the results log: what was the call for CCCCCCCCCCO ?
0 (no)

For CC(=O)[C@]1(O)Cc2c(O)c3c(c(O)c2[C@@H](O[C@H]2C[C@H](N)[C@H](OC(C[C@H](C)O)O[C@@H](C)C=O)[C@H](C)O2)C1)C(=O)c1c(O)cccc1C3=O (stereo partly specified) , what call appears in the results of this test?
1 (yes)

Look up the recorded call for COc1cc2c(cc1OC)[C@@]13CCN4CC5=CCO[C@H]6CC(=O)N2[C@H]1[C@H]6[C@H]5C[C@H]43 in this test.
0 (no)

What did the test return for CC(=O)Nc1ccc2ncccc2c1 ?
0 (no)
